The following molecules were reported with IC50 values on TACE (Homo sapiens (Human)) in different studies.

For orientation, consider the following solved cases.
>  <molecule>
Cc1cccn(CC2(c3ccc4ccccc4c3)NC(=O)NC2=O)c1=O (centres unmarked)

>  <measurement_name>
IC50

>  <reported_value>
< 100 nM

$$$$
>  <molecule>
CCc1cc(N2CCN(C(=O)CC[C@@]3(C)NC(=O)NC3=O)CC2)ccc1Cl

>  <measurement_name>
IC50

>  <reported_value>
> 100 nM

$$$$
>  <molecule>
Cc1cccn(CC2(c3ccc(-c4cccnc4)cc3)NC(=O)NC2=O)c1=O (centres unmarked)

>  <measurement_name>
IC50

>  <reported_value>
< 100 nM

$$$$
>  <molecule>
Cc1cccn(CC2(c3ccc(C#Cc4ccccc4)cc3)NC(=O)NC2=O)c1=O (centres unmarked)

>  <measurement_name>
IC50

>  <reported_value>
< 100 nM

$$$$
>  <molecule>
CC#CCOc1ccc(S(=O)(=O)CC2(C(=O)NO)CCN(C(=O)Nc3ccccc3)CC2)cc1

>  <measurement_name>
IC50

>  <reported_value>
20.8 nM

$$$$

Task item: Consider the molecule shown here: Cc1cccn(CC2(c3cccc(-c4cccnc4)c3)NC(=O)NC2=O)c1=O (centres unmarked) What is its recorded IC50?
Reply: < 100 nM

Task item: Now consider O=CN(O)C(CS(=O)(=O)N1CCc2ccc(-c3cccc(O)c3)cc2C1)C1CCCC1 (centres unmarked) .
Reply: > 5000 nM

Task item: Now consider O=CN(O)C(CS(=O)(=O)N1CCc2ccc(-c3ccc(F)cc3)cc2C1)C1CC1 (centres unmarked) .
Reply: 394 nM
